B1: CPEB3 Ribozyme (parent)
chain: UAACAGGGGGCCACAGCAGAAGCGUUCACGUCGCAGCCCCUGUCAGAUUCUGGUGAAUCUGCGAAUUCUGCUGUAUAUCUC

Variants of: B1
protocol: self-cleavage, relative activity (ratio to wild type); higher = more cleavage; in vitro, sequencing
Reported self-cleavage values follow for various variants

- seq-string: "UAACAGGGGGCCACAGCAGAAGCGUUCACGUCGCGGCCCCUGUCAGAAUCUGGUGAAUCUGCGAAUUCUGCUGUAUAUCUC"
  self-cleavage: 1.14
- seq-string: "UAACAGGGGACCACAGCAGAAGCGUUCACGUCGCAGCCCCUGUCAGAUUCUGGUGAAUCUGCGAAUUCUGCUGUACAUCUC"
  self-cleavage: 0.33
- seq-string: "UAACAGGGGGCCACUGCAGAAGCGUUCUCGUCGCAGCCCCUGUCAGAUUCUGGUGAAUCUGCGAAUUCUGCUGUAUAUCUC"
  self-cleavage: 0.38
- seq-string: "UAACAGGGGGCCACAGCAGAAGCGUUCACGUCGCAGCCCCUGUCAGAUACAGGUGAAUCUGCGAAUUCUGCUGUAUAUCUC"
  self-cleavage: 0.45
- seq-string: "UAACAGGGGGCCACAGCAGAAGCGUUCACGUCGCAGCCCCUGCCAGAUUCUGGUGAUUCUGCGAAUUCUGCUGUAUAUCUC"
  self-cleavage: 0.22
- seq-string: "UAACAGGGGGCCACAGCAGAAGCGUUCACGUCGCAGCCCCUGUCAGAUUCUGGUGAAUCUGCGAAUGCUGCUGUAUAUCUC"
  self-cleavage: 0.4
- seq-string: "UAACAGGGGGCUACAGCAGUAGCGUUCACGUCGCAGCCCCUGUCAGAUUCUGGUGAAUCUGCGAAUUCUGCUGUAUAUCUC"
  self-cleavage: 0.38
- seq-string: "UCACAGGGGGCCACAGCAGAAGCGUUCACGUCGCAGCCCCUGUCAGAUUCAGGUGAAUCUGCGAAUUCUGCUGUAUAUCUC"
  self-cleavage: 0.7
- seq-string: "UAACAGGGGGCCACGGCAGAAGCGUUCACGUCGCAGCCCCUGUCAGAAUCUGGUGAAUCUGCGAAUUCUGCUGUAUAUCUC"
  self-cleavage: 0.35
- seq-string: "UAACAGGGGGCCACAGCAGAAGCGUACACGUCGCAGCCCCUGUCAGAUUCUGGUGAAUCUGCGAAUUCUGCUGUAUACCUC"
  self-cleavage: 0.82

Hey, just so you know, these numbers are from the RNAGym collection of RNA variant scans (doi:10.1093/nar/gkz1192).
